experiment: Mini-pig dermal pharmacokinetic study; type: in vivo, Guangxi Bama mini-pigs; conditions: minipig, topical or ocular, 15 mg/cm^2, topical ointment, 15 mg/cm^2 at 0 h, 8 h and 24 h; epidermis; read-out: Epidermis AUC0-last

compound | AUC(0-t), µg·h/mL
Cc1cnc(Nc2cnn(C)c2)nc1-c1cnn([C@H](CC#N)C2CCCC2)c1 [Compound 4] | 3520

---

experiment: Mini-pig dermal pharmacokinetic study; assay type: in vivo, Guangxi Bama mini-pigs; conditions: minipig, topical or ocular, 15 mg/cm^2, topical ointment, 15 mg/cm^2 at 0 h, 8 h and 24 h; dermis; read-out: Dermis AUC0-last

compound | AUC(0-t) (µg·h/mL)
Cc1cnc(Nc2cnn(C)c2)nc1-c1cnn([C@H](CC#N)C2CCCC2)c1 [Compound 4] | 517
